- procedure_summary: Lipophilicity, log D of the compound by HPLC analysis
- Format: physicochemical
measure_name: logD
Number only, no unit.

sample_smiles	recorded_value
COc1nc(N2CC[C@@H](C)N(C(=O)c3cc(C)ccc3-n3nccn3)CC2)ncc1C(F)(F)F	3.4

Fill blank: measured logD of the compound Cc1ncc(Cl)c(N2CC[C@@H](C)N(C(=O)c3ccccc3-n3nccn3)CC2)n1 is ____. 2.8

###

- procedure_summary: Clearance in rat at 2 mg/kg, iv
- Assay type: ADME, organism-based
- run_conditions: in vivo
measure_name: clearance
Could you kindly put the unit after your number?

sample_smiles	clearance
COc1nc(N2CC[C@@H](C)N(C(=O)c3cc(C)ccc3-n3nccn3)CC2)ncc1C(F)(F)F	37 mL/min/kg

API: the following record is the query input.
Bench note: what clearance did Cc1ncc(Cl)c(N2CC[C@@H](C)N(C(=O)c3ccccc3-n3nccn3)CC2)n1 show? 118 mL/min/kg

###

- procedure_summary: Tmax in dog at 3 mg/kg, po
- Assay type: ADME, organism-based, Canis lupus familiaris
- run_conditions: in vivo
Each entry below lists one item and its recorded Tmax value.
// units = min; emit number, no label

What value of Tmax has been reported for the following molecule? COc1nc(N2CC[C@@H](C)N(C(=O)c3cc(C)ccc3-n3nccn3)CC2)ncc1C(F)(F)F 36

What does the record list as Tmax for Cc1ncc(Cl)c(N2CC[C@@H](C)N(C(=O)c3ccccc3-n3nccn3)CC2)n1 ? 24

###

- procedure_summary: Plasma protein binding in human
- Format: ADME, cell-free
- run_conditions: read-out: PPB (converted)
measure_name: fraction unbound
Please reply with the value in numeric form only.

sample_smiles	fraction unbound
COc1nc(N2CC[C@@H](C)N(C(=O)c3cc(C)ccc3-n3nccn3)CC2)ncc1C(F)(F)F	0.04

--- query ---
Given the compound Cc1ncc(Cl)c(N2CC[C@@H](C)N(C(=O)c3ccccc3-n3nccn3)CC2)n1 , what is its reported fraction unbound? 0.05

###

- tested_system: Orexin receptor type 2 (Homo sapiens) (UniProt O43614)
- procedure_summary: Binding affinity to human orexin 2 receptor expressed in CHO cells after 3 hrs by radioligand binding assay
measure_name: pKi
Keep it numeric: pKi is minus log10 of the concentration in mol/L.

sample_smiles	tested_system	pKi
Cc1cnc(Cl)nc1N1CC[C@@H](C)N(C(=O)c2ccccc2-n2nccn2)CC1	Orexin receptor type 2 (Homo sapiens) (UniProt O43614)	8.59
C[C@@H]1CCN(c2nc(Cl)ncc2Cl)CCN1C(=O)c1ccccc1-n1nccn1	Orexin receptor type 2 (Homo sapiens) (UniProt O43614)	8.96
Cc1ccc(-n2nccn2)c(C(=O)N2CCN(c3ncc(C(F)(F)F)c(C)n3)CC[C@H]2C)c1	Orexin receptor type 2 (Homo sapiens) (UniProt O43614)	9.30

I'm curious: which pKi was measured for Cc1ccc(-n2nccn2)c(C(=O)N2CCN(c3ncc(C)c(Cl)n3)CC[C@H]2C)c1 tested on Orexin receptor type 2 (Homo sapiens) (UniProt O43614)? 9.40

###

- procedure_summary: Plasma protein binding in rat
- Format: ADME, cell-free
- run_conditions: read-out: PPB (converted)
fraction unbound values for the compounds below.
The reply should be a number, written without any unit.

sample_smiles	fraction unbound
COc1nc(N2CC[C@@H](C)N(C(=O)c3cc(C)ccc3-n3nccn3)CC2)ncc1C(F)(F)F	0.05

Proceeding to the next compound to report its fraction unbound.
Which measured fraction unbound value corresponds to Cc1ncc(Cl)c(N2CC[C@@H](C)N(C(=O)c3ccccc3-n3nccn3)CC2)n1 ? 0.12

###

- procedure_summary: Clearance in dog at 0.125 mg/kg, iv
- Assay type: ADME, organism-based, Canis lupus familiaris
- run_conditions: in vivo
Listing: clearance of selected compounds
Respond numerically; units are mL/min/kg and should not be typed.

Answered cases to consult:
sample_smiles	clearance, mL/min/kg
COc1nc(N2CC[C@@H](C)N(C(=O)c3ccccc3-n3nccn3)CC2)ncc1C(F)(F)F	3
Cc1ccc(-n2nccn2)c(C(=O)N2CCN(c3ncc(Cl)c(C)n3)CC[C@H]2C)c1	9
Cc1ccc(-n2nccn2)c(C(=O)N2CCN(c3ncc(C)c(Cl)n3)CC[C@H]2C)c1	8
COc1nc(N2CC[C@@H](C)N(C(=O)c3cc(C)ccc3-n3nccn3)CC2)ncc1C(F)(F)F	3
Cc1ccc(-n2nccn2)c(C(=O)N2CCN(c3ncc(C(F)(F)F)c(Cl)n3)CC[C@H]2C)c1	15
C[C@@H]1CCN(c2ncc3cc(F)ccc3n2)CCN1C(=O)c1ccccc1-n1nccn1	3

May I ask what clearance has been recorded for Cc1nc(N2CC[C@@H](C)N(C(=O)c3ccccc3-n3nccn3)CC2)ncc1C(F)(F)F ? 5

Need clearance, item Cc1ccc(-n2nccn2)c(C(=O)N2CCN(c3ncc(C(F)(F)F)c(C)n3)CC[C@H]2C)c1 10

###

- procedure_summary: Half life in dog at 0.125 mg/kg, iv
- Format: ADME, organism-based, Canis lupus familiaris
- run_conditions: in vivo
measure_name: half-life (h)
# unit: h | format: bare number

# input compound: COc1nc(N2CC[C@@H](C)N(C(=O)c3cc(C)ccc3-n3nccn3)CC2)ncc1C(F)(F)F ; wanted: its half-life 2.4

###

- tested_system: Orexin receptor type 2 (Homo sapiens)
- Sequence (O43614 whole entry): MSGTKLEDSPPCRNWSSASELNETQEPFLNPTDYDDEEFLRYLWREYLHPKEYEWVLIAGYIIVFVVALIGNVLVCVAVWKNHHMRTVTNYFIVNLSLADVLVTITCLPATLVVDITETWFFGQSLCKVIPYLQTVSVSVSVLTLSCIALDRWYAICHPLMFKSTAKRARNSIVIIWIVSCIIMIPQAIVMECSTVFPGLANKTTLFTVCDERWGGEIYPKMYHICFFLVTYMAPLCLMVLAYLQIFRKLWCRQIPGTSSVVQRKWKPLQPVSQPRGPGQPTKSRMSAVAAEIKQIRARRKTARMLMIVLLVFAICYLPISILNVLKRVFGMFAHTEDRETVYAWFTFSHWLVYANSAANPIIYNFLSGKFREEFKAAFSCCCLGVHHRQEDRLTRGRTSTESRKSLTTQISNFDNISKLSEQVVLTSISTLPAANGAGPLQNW
- procedure_summary: Antagonist activity at human orexin 2 receptor expressed in CHO cells assessed as inhibition of orexin-A-induced intracellular calcium level after 60 mins by FLIPR assay
# key: entry, value: pIC50
// pIC50: -log10(molar conc.)

These solved cases illustrate the format of a correct answer.
sample_smiles	pIC50
Cc1ncc(Cl)c(N2CC[C@@H](C)N(C(=O)c3ccccc3-n3nccn3)CC2)n1	7.32
Cc1ccc(-n2nccn2)c(C(=O)N2CCN(c3ncc(C(F)(F)F)c(Cl)n3)CC[C@H]2C)c1	6.85
Cc1ccc(-n2nccn2)c(C(=O)N2CCN(c3ncc(Cl)c(C)n3)CC[C@H]2C)c1	7.70
Cc1ncc(C(F)(F)F)c(N2CC[C@@H](C)N(C(=O)c3ccccc3-n3nccn3)CC2)n1	7.06
Cc1ccc(-n2nccn2)c(C(=O)N2CCN(c3ncc(C(F)(F)F)c(C)n3)CC[C@H]2C)c1	7.07
C[C@@H]1CCN(c2ncc(C(F)(F)F)c(Cl)n2)CCN1C(=O)c1ccccc1-n1nccn1	7.06
C[C@@H]1CCN(c2nc(Cl)ncc2Cl)CCN1C(=O)c1ccccc1-n1nccn1	7.60
COc1nc(N2CC[C@@H](C)N(C(=O)c3ccccc3-n3nccn3)CC2)ncc1C(F)(F)F	7.68
Cc1ncc(C)c(N2CC[C@@H](C)N(C(=O)c3ccccc3-n3nccn3)CC2)n1	7.09
Cc1ccc(-n2nccn2)c(C(=O)N2CCN(c3ncc(C)c(Cl)n3)CC[C@H]2C)c1	7.55

Record request: pIC50 value, item COc1nc(N2CC[C@@H](C)N(C(=O)c3cc(C)ccc3-n3nccn3)CC2)ncc1C(F)(F)F 7.57

Need pIC50 of COc1ncc(C(F)(F)F)c(N2CC[C@@H](C)N(C(=O)c3ccccc3-n3nccn3)CC2)n1 , thanks. 6.61

I'd like to know its pIC50. The compound in question is C[C@@H]1CCN(c2nc(Cl)ncc2C(F)(F)F)CCN1C(=O)c1ccccc1-n1nccn1 7.14

Any idea what pIC50 was measured for Cc1cnc(Cl)nc1N1CC[C@@H](C)N(C(=O)c2ccccc2-n2nccn2)CC1 ? 7.38

Sample Cc1nc(N2CC[C@@H](C)N(C(=O)c3ccccc3-n3nccn3)CC2)ncc1C(F)(F)F — what was its pIC50? 7.72

Any idea what its pIC50 is? The compound is COc1nc(N2CC[C@@H](C)N(C(=O)c3cc(C)ccc3-n3nccn3)CC2)ncc1C 7.51

###

Known Tmax of a selection of compounds
- procedure_summary: Tmax in satellite rat sleep model at 30 mg/kg, po
- Type: ADME, organism-based
- run_conditions: in vivo

sample_smiles	Tmax
COc1nc(N2CC[C@@H](C)N(C(=O)c3cc(C)ccc3-n3nccn3)CC2)ncc1C(F)(F)F	0.8 h

Let us examine a further case.
Can you share its Tmax? I mean this compound: C[C@@H]1CCN(c2ncc3cc(F)ccc3n2)CCN1C(=O)c1ccccc1-n1nccn1 1.3 h

###

- procedure_summary: Clearance in dog at 0.5 mg/kg, iv
- Format: ADME, organism-based, Canis lupus familiaris
- run_conditions: in vivo
measure_name: clearance
Output should be the measured figure followed by the unit it is expressed in.

Could you tell me which clearance is on file for Cc1ncc(Cl)c(N2CC[C@@H](C)N(C(=O)c3ccccc3-n3nccn3)CC2)n1 ? 15 mL/min/kg

###

Cmax values, listed per item
- procedure_summary: Cmax in rat at 10 mg/kg, po
- Format: ADME, organism-based
- Design: dose 10 mg/kg, route oral
- run_conditions: in vivo
Give just the numeric value; nM need not be written.

sample_smiles	Cmax [nM]
Cc1ncc(Cl)c(N2CC[C@@H](C)N(C(=O)c3ccccc3-n3nccn3)CC2)n1	900

Can you look up the measured Cmax of COc1nc(N2CC[C@@H](C)N(C(=O)c3cc(C)ccc3-n3nccn3)CC2)ncc1C(F)(F)F for me? 200
